In this section, each of the compounds is paired with its reported TGI.
tested on: SF-539 CNS; assay: NCI tumour cell line growth inhibition, 48 h

| compound | TGI |
| --- | --- |
| CC1SCCc2nc3ccccc3n21 (stereo not drawn) | > 100 µM |
| Cn1c(=O)c2c(n(C)c1=O)n1c(=O)c3ccccc3nc1n2C | > 100 µM |
| N#Cc1c2c(c(Nc3ccc(Cl)cc3)n3c1nc1ccccc13)CCCC2 | > 100 µM |

###

In this section, each of the compounds is paired with its reported TGI.
system: A549 NSCLC; assay: NCI tumour cell line growth inhibition, 48 h
metric.name: TGI

| compound | metric.name | result |
| --- | --- | --- |
| COC(=O)CCSC(=O)Nc1ccccc1Cl | TGI | > 100 µM |
| Nc1nc2c(ccc3ccccc32)[nH]1 | TGI | > 10 µM |
| O=C(Cn1c(-c2ccccc2)cc2ccccc21)N1CCOCC1 | TGI | > 100 µM |
| O=C(c1ccccc1)c1ccc(N2C(=O)C3C4c5ccccc5C(/C=C/C(=O)c5ccccn5)(c5ccccc54)C3C2=O)cc1 (stereo not drawn) | TGI | > 100 µM |
| CC(C)c1nc(Cl)c(Cl)c(Cl)n1 | TGI | > 41.3 µM |
| O=C(/C=C/c1ccc(OCC(=O)N2CCN(c3ccccc3)CC2)cc1)c1ccccc1 | TGI | > 100 µM |
| CC(=O)OCc1cc2c(s1)C(=O)c1sccc1C2=O | TGI | 0.368 µM |
| Cn1c(=O)c2c(n(C)c1=O)n1c(=O)c3ccccc3nc1n2C | TGI | > 100 µM |
| Cc1cc(NS(=O)(=O)c2ccc(NC(NC(=O)OC(C)C)(C(F)(F)F)C(F)(F)F)cc2)nc(C)n1 | TGI | > 100 µM |
| CCOC(=O)N/N=C(/N)Cc1ccc(Cl)cc1 | TGI | > 100 µM |
| Clc1ccc(N=CNc2ccc(-c3nc4ccccc4[nH]3)cc2)cc1 | TGI | > 100 µM |
| N#Cc1c(N)nc(N2CCOCC2)c(C#N)c1-c1ccc(Cl)cc1Cl | TGI | 54.9 µM |
| O=C(Nc1cccc(C(F)(F)F)c1)Nc1ccc(OCc2nnc(-c3ccccc3)o2)c(F)c1 | TGI | 38.5 µM |
